# TESTED TARGET: Sodium-dependent serotonin transporter (Homo sapiens)
# Sequence (P31645 whole entry): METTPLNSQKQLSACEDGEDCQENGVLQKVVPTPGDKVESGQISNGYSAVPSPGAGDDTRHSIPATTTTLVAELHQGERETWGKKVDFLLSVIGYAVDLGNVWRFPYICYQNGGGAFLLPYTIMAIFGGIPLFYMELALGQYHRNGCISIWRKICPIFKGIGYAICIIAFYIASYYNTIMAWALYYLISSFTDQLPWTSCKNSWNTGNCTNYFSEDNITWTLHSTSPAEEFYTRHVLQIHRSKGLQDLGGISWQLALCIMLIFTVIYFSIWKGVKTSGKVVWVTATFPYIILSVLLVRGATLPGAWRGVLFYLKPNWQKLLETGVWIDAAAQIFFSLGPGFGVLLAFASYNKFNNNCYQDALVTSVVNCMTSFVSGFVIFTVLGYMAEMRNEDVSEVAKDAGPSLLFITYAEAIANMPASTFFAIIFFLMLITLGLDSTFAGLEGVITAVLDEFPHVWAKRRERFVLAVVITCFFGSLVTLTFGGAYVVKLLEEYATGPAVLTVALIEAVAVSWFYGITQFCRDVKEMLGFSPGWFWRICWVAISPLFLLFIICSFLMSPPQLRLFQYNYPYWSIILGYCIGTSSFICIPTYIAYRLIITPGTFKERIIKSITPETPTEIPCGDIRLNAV
# METHOD: Displacement of [3H]-hydroxytryptamine from human SERT expressed in CHO cells by TopCounting analysis
Exam item: assign rule met to entries whose IC50 is below 20 nM and rule not met to entries at or above 20 nM. Note that a value of exactly 20 nM receives rule not met.

{"COMPOUND": "CSCC(c1ccc(Cl)c(Cl)c1)C1CCNCC1.Cl (racemic)", "CATEGORY": "rule met"}
{"COMPOUND": "COCC(c1ccc(Cl)cc1)C1CCNCC1 (racemic)", "CATEGORY": "rule not met"}
{"COMPOUND": "CCSCC(c1ccc(Cl)c(Cl)c1)C1CCNCC1 (racemic)", "CATEGORY": "rule met"}
{"COMPOUND": "COCC(c1ccc(Cl)c(Cl)c1)C1CCNCC1.Cl (racemic)", "CATEGORY": "rule met"}
{"COMPOUND": "COCC(c1cccc(Cl)c1)C1CCNCC1 (racemic)", "CATEGORY": "rule not met"}
{"COMPOUND": "CCCC(=O)C(c1ccc(Cl)c(Cl)c1)C1CCNCC1 (racemic)", "CATEGORY": "rule not met"}
{"COMPOUND": "CC(=O)C(c1ccc(Cl)c(Cl)c1)C1CCNCC1.Cl (racemic)", "CATEGORY": "rule not met"}
{"COMPOUND": "CCC(=O)C(c1ccc(Cl)c(Cl)c1)C1CCNCC1 (racemic)", "CATEGORY": "rule met"}
{"COMPOUND": "CCOC(=O)C(c1ccc(Cl)c(Cl)c1)C1CCNCC1 (racemic)", "CATEGORY": "rule met"}
{"COMPOUND": "CS(=O)(=O)CC(c1ccc(Cl)c(Cl)c1)C1CCNCC1 (racemic)", "CATEGORY": "rule not met"}
{"COMPOUND": "CCOCC(c1ccc(Cl)c(Cl)c1)C1CCNCC1.Cl (racemic)", "CATEGORY": "rule met"}

---

# TESTED TARGET: hERG (KCNH2) (Homo sapiens)
# Sequence (Q12809 whole entry): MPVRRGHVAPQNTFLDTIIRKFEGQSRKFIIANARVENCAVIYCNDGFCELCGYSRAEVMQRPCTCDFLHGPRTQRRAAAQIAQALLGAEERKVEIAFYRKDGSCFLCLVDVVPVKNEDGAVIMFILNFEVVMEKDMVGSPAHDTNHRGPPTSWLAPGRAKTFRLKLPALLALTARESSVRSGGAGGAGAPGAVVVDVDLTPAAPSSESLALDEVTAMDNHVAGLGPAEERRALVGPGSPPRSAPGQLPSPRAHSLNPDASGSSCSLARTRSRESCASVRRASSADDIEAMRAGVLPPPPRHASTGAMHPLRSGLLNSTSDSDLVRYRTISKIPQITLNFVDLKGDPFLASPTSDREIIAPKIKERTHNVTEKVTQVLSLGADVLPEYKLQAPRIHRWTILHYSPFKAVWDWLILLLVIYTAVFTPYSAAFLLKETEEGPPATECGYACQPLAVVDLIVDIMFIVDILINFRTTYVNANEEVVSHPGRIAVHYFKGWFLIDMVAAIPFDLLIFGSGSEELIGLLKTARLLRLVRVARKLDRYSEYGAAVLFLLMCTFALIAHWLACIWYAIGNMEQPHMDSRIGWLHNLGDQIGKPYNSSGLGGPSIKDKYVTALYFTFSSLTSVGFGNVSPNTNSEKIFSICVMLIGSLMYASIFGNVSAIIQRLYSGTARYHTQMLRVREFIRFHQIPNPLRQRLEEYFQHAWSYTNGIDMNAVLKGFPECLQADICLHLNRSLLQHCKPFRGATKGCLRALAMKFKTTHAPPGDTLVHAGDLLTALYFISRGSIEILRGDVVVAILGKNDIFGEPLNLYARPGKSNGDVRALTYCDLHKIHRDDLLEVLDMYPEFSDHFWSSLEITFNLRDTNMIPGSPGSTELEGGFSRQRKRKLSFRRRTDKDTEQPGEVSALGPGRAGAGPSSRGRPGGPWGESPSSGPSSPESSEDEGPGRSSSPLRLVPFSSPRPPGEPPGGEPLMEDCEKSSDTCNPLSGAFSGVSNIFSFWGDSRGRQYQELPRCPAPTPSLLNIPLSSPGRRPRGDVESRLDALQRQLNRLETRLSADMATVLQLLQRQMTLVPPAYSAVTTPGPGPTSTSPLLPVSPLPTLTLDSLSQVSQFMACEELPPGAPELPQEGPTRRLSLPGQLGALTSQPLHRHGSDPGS
# METHOD: Inhibition of human ERG channel at 10 uM by ionworks assay relative to control

{"COMPOUND": "CSCC(c1ccc(Cl)c(Cl)c1)C1CCNCC1.Cl (racemic)", "TESTED TARGET": "hERG (KCNH2) (Homo sapiens)", "inhibition at 10 µM (%)": 73}
{"COMPOUND": "CS(=O)(=O)CC(c1ccc(Cl)c(Cl)c1)C1CCNCC1 (racemic)", "TESTED TARGET": "hERG (KCNH2) (Homo sapiens)", "inhibition at 10 µM (%)": 9}
{"COMPOUND": "CC(=O)C(c1ccc(Cl)c(Cl)c1)C1CCNCC1.Cl (racemic)", "TESTED TARGET": "hERG (KCNH2) (Homo sapiens)", "inhibition at 10 µM (%)": 40}
{"COMPOUND": "CCCC(=O)C(c1ccc(Cl)c(Cl)c1)C1CCNCC1 (racemic)", "TESTED TARGET": "hERG (KCNH2) (Homo sapiens)", "inhibition at 10 µM (%)": 72}
{"COMPOUND": "CCSCC(c1ccc(Cl)c(Cl)c1)C1CCNCC1 (racemic)", "TESTED TARGET": "hERG (KCNH2) (Homo sapiens)", "inhibition at 10 µM (%)": 94}
{"COMPOUND": "COC(=O)C(c1ccc(Cl)c(Cl)c1)C1CCNCC1 (racemic)", "TESTED TARGET": "hERG (KCNH2) (Homo sapiens)", "inhibition at 10 µM (%)": 56}
{"COMPOUND": "COC[C@@H](c1ccc(Cl)c(Cl)c1)C1CCNCC1.Cl", "TESTED TARGET": "hERG (KCNH2) (Homo sapiens)", "inhibition at 10 µM (%)": 46}
